# method: Quantitative highthroughput screen to assess conditional lethalithy of P12 Ichikawa cells grown in RPMI1640 with dialyzed fetal bovine serum (RPMI+ds) (AID 1963880); also: nearly all actives have a fitted effect of over 35% in size; also: potency is read from the fitted curve at half-maximal effect
# condition details: ATP luminescence, 48 h; P12-Ichikawa viability; series mostly up to 45.8 µM
# Description: Assay Provider: Jason Cantor Ph.D. Department of Biochemistry University of Wisconsin-Madison, Madison, WI, USA Chemical screening studies have identified drug sensitivities across hundreds of cancer cell lines but most putative therapeutics fail to translate. […] Sets of conditional anticancer compounds spanned phases of clinical development and included non-oncology drugs were assessed. […] 6; Detection; Luminescence, Viewlux PerkinElmer. […]
Results filed as inconclusive are left out. Activity calls are given as the source filed them. Calls follow the shape of the dose curve; as a rule, active = well fitted cell-killing curve with a large enough effect; inconclusive = small, poorly fitted or top-dose-only effect; inactive = flat fitted curve, though single readings scatter.
property name: Potency

- O=C(c1cncc(Br)c1)N1CCC(N2CCCC2)CC1: inactive
- COc1ccccc1OCC(O)COC(N)=O (stereo not drawn): inactive
- O=C(C[C@@H]1CC=CCCC(=O)O[C@H](c2ccccc2)CNC1=O)NCc1ccc(Cl)cc1: inactive
- CN(C)S(=O)(=O)c1ccc2c(c1)C(=Cc1cc3c([nH]1)CCCC3)C(=O)N2: inactive
- COCCCN1CCC(NC(=O)c2cc(Cl)c(N)c3c2OCC3)CC1: inactive
- CC1(C)CC(=O)c2c(C(F)(F)F)nn(-c3ccc(C(N)=O)c(NC4CCC(O)CC4)c3)c2C1 (stereo not drawn): 0.148 µM (active)

INPUT: Entry CCCCCCCCCCCC1=C(O)C(=O)C=C(O)C1=O : reported Potency = ?
OUTPUT: 3.32 µM (active)

INPUT: Which measured Potency value corresponds to CC[C@@H](C)[C@H](NC(=O)[C@H](CC1CCCCC1)NC(=O)c1ccno1)C(=O)N1CCC2(CCc3ccccc32)CC1 ?
OUTPUT: inactive

INPUT: What Potency value was documented for this molecule, CS(=O)c1ccc(-c2nc(-c3ccc(F)cc3)c(-c3ccncc3)[nH]2)cc1 (stereo not drawn) ?
OUTPUT: 8.55 µM (active)

From: PubChem BioAssay (NCATS)
